Collected IC50 for UniProtKB O75116 across several studies; molecules listed below.
Measured Parameter: IC50 (nM)

Please review the entries below; each comes with its answer.
[[record]]
molecule = "CC(C)NC(=O)c1ccc2cc(-c3nccc(Nc4ccc5[nH]ncc5c4)n3)[nH]c2c1"
unit_abbrev = "nM"
observed_measurement = 100

[[record]]
molecule = "Cn1c(C(=O)Nc2ccncc2Cl)cc2ccc(-c3nccc(Nc4ccc5[nH]ncc5c4)n3)cc21"
unit_abbrev = "nM"
observed_measurement = 11

[[record]]
molecule = "CN1CCn2nc(NC(=O)c3cccc(CNC(=O)c4ccc(-c5ccncc5)cc4)c3)cc2C1"
unit_abbrev = "nM"
observed_measurement = 6

[[record]]
molecule = "COc1nc(O[C@H]2C[C@@]3(C[C@H](NC(=O)c4cnn5cc(OCC(F)F)ccc45)C3)C2)c(C(N)=O)s1 (stereo partly drawn)"
unit_abbrev = "nM"
observed_measurement = 31.2

[[record]]
molecule = "CCOC(=O)COc1cccc(CN2CCC[C@H](Nc3ccc4[nH]ncc4c3)C2)c1"
unit_abbrev = "nM"
observed_measurement = 109

[[record]]
molecule = "COc1cc(N2CCC3(CCN(C(=O)c4ccc(N5CCNCC5)cc4)CC3)C2=O)ccc1-c1cn[nH]c1"
unit_abbrev = "nM"
observed_measurement = 0.4

[[record]]
molecule = "O=C(Cc1ccc(-c2n[nH]c(=O)c3ccccc23)cc1)Nc1nc2ccccc2o1"
unit_abbrev = "nM"
observed_measurement = 17


1 = N[C@@H](CCc1ccccc1)C(=O)Nc1ccc2c(c1)OCc1cnccc1-2
2 = COc1cc(N2CCC3(CCN(C(=O)c4cc(C)[nH]n4)CC3)C2=O)ccc1-c1cn[nH]c1
[Q] Task for the reader: decide whether 1 or 2 has the larger IC50. Identify your selection by its label.
[A] 1
(1: 284 nM, 2: 27 nM)

* * *

Collected IC50 for ROCK2 (Homo sapiens) across several studies; compounds listed below.
Measured Parameter: IC50 (nM)

Please review the entries below; each comes with its answer.
[[record]]
compound = "Cc1cc(C(=O)N[C@H](C)c2ccccc2)ccc1-c1cn[nH]c1"
observed_measurement = 3.51

[[record]]
compound = "CC(=O)NCCOc1cccc(CN2CCC[C@H](Nc3ccc4[nH]ncc4c3)C2)c1"
observed_measurement = 451


a = COc1cccc(C(CN)NC(=O)c2cc(-c3ccc4[nH]nc(F)c4c3)ccc2OC(F)F)c1 (stereo not shown)
b = O=C(NC(CN1CCCC1)c1cccc(F)c1)c1cccc(-c2ccc3[nH]ncc3c2)c1 (stereo not shown)
c = NC(=O)c1cccnc1O[C@H]1C[C@]2(C1)C[C@H](N1C(=O)NC(CCOCC(F)(F)F)C1=O)C2 (single isomer, unassigned)
d = CN(C)c1ccc(C(=O)Nc2ccc(-c3n[nH]c(=O)c4ccccc34)cc2)cc1
e = O=C(Nc1ccc2c(c1)OCc1cnccc1-2)c1cccc(F)c1
[Q] Reorder the items by IC50, least to greatest. Would you mind listing the labels in the order requested?
[A] d, a, b, c, e
(d: 0.3 nM, a: 9 nM, b: 14 nM, c: 62 nM, e: 3560 nM)

* * *

Collected pIC50 for ROCK2 (Homo sapiens, UniProt O75116) across several studies; compounds listed below.
pIC50: −log10 of the molar value.
Measured Parameter: pIC50

[[record]]
compound = "COc1cc(N2CCC3(CCN(C(=O)c4ccc(N5CC(=O)NC5=O)cc4)CC3)C2=O)ccc1-c1cn[nH]c1"
observed_measurement = 7.92

[[record]]
compound = "NC(=O)c1cccnc1Oc1ccc(CC(=O)Nc2nc3ccc(F)cc3n2CC2CC2)cc1Cl"
observed_measurement = 8.15

[[record]]
compound = "Cn1c(C(=O)N2CCC(C(F)(F)F)C2)cc2ccc(-c3nccc(Nc4ccc(-c5cn[nH]c5)cc4)n3)cc21 (stereo not drawn)"
observed_measurement = 6.53

[[record]]
compound = "NC[C@@H](C(=O)Nc1cc2ccncc2s1)c1ccc(COC(=O)[C@H]2C[C@H](O[N+](=O)[O-])C2)cc1"
observed_measurement = 8.75

[[record]]
compound = "COc1cccc([C@@H](C)NC(=O)c2ccc(-c3c[nH]nc3C#N)cc2OC)c1"
observed_measurement = 7.68


1 = NC(=O)c1cccnc1Oc1ccc(CC(=O)Nc2nc3ccccc3n2CC2CC2)cc1F
2 = Cc1sc2cc(C(N)=O)c(O[C@H]3C[C@@]4(C[C@H](NC(=O)c5cnn(-c6ccc(F)cc6F)c5C)C4)C3)nc2c1C (stereo partly drawn)
3 = NC[C@@H](C(=O)Nc1cc2ccncc2s1)c1ccc(COC(=O)[C@H]2CC[C@H](O[N+](=O)[O-])CC2)cc1
4 = CC(C)CN1CC(=O)N([C@H]2C[C@@]3(C[C@H](Oc4ncccc4C(N)=O)C3)C2)C1=O (stereo partly drawn)
[Q] Reorder the items by pIC50, least to greatest. Would you mind listing the labels in the order requested?
[A] 4, 2, 1, 3
(4: 6.29, 2: 6.65, 1: 7.60, 3: 8.84)
